Just for reference, patent US10624947B2 is where these values come from.

Ends that are not written are not given here.
# Minimal inhibitory concentration measurements, system: Escherichia coli
Entry rule: numbers only, all in µg/mL.

[
  {
    "Polymer sequence": "GRAKRLRKKLKKLAKKLSPVIPLLHLG [BMAP-27C]",
    "System": "Escherichia coli",
    "Output unit": "µg/mL",
    "Minimal inhibitory concentration": 32
  }
]

Quick one: give measured Minimal inhibitory concentration for GRFKRFRKKFKKLFKKLSPVIPLLHLG [BMAP-27, reference compound]
8

Quick one: give measured Minimal inhibitory concentration for GRFKRLRKKFKKLFKKLSPVIPLLHLG [BMAP-27A]
8
